- Test system: UGT
- protocol_text: p-nitrophenol glucuronidation, rat hepatic microsomes
- Type: in vitro ADME
- applied_conditions: 12.5 µM
value_kind: p-nitrophenol glucuronidation activity (µmol/mg/min)
One number for each entry, in µmol/mg/min.

| compound | quantity_unit | p-nitrophenol glucuronidation activity |
| --- | --- | --- |
| CC12CCC(CC1=O)C2(C)C (stereo not drawn) | µmol/mg/min | 2.62 |
| COC(=O)[C@H]1CC[C@H](C(=O)OC)CC1 | µmol/mg/min | 2.71 |
| O=C(O)C1C2C=CC(C2)C1C(=O)O (stereo not drawn) | µmol/mg/min | 2.85 |

Return reported p-nitrophenol glucuronidation activity values for all items listed beneath this line.
1. O=C(O)C1CC2C=CC1O2 (stereo not drawn)
2. CCCCCC12CCC(C(=O)O)(CC1)CC2

Result:
1. 2.87
2. 2.88

Return reported p-nitrophenol glucuronidation activity values for all items listed beneath this line.
1. CC1(O)CCC(C(C)(C)O)CC1 (stereo in doubt) [Trans-terpin, trans-terpin]
2. CC12CCC(CC1)C(C)(C)O2

Result:
1. 2.87
2. 2.46

Return reported p-nitrophenol glucuronidation activity values for all items listed beneath this line.
1. CC1(C)CCCCC1
2. C[C@]12CC(=O)C[C@@]1(C)CC(=O)C2

Result:
1: 2.59; 2: 2.58

====

- System: CYP3A
- protocol_text: CYP3A catalytic activity (erythromycin-N-demethylation), rat hepatic microsomes
- Type: in vitro ADME
- applied_conditions: liver microsomes, pH 7.4, probe erythromycin, 25 µM, read-out: CYP3A catalytic activity, % of Control
value_kind: activity at 30 min, 25 µM (%)
Answers are plain numbers, in %.

| molecule | numeric_result |
| --- | --- |
| C[C@]12CC(=O)C[C@@]1(C)CC(=O)C2 | 99.3 |

Return reported activity at 30 min, 25 µM values for all items listed beneath this line.
1. COC(=O)[C@H]1CC[C@H](C(=O)OC)CC1
2. CC12CCC(CC1=O)C2(C)C (centres unmarked)

Result:
1. 116
2. 95

Return reported activity at 30 min, 25 µM values for all items listed beneath this line.
1. CC12CCC(CC1)C(C)(C)O2
2. CC1(O)CCC(C(C)(C)O)CC1 (stereo in doubt) [Trans-terpin, trans-terpin]
3. CCCCCC12CCC(C(=O)O)(CC1)CC2
4. CC1(C)CCCCC1
5. O=C(O)C1CC2C=CC1O2 (centres unmarked)

Result:
1. 101
2. 99.3
3. 102
4. 100
5. 114

====

- Test system: CYP3A
- protocol_text: CYP3A catalytic activity (erythromycin-N-demethylation), possum hepatic microsomes
- Format: in vitro ADME, possum (Trichosurus vulpecula)
- applied_conditions: possum (Trichosurus vulpecula), liver microsomes, pH 7.4, probe erythromycin, 12.5 µM, read-out: CYP3A catalytic activity, % of Control
value_kind: activity at 30 min, 12.5 µM (%)
One number for each entry, in %.

| molecule | activity at 30 min, 12.5 µM (%) |
| --- | --- |
| CC1(O)CCC(C(C)(C)O)CC1 (stereo in doubt) [Trans-terpin, trans-terpin] | 106 |
| COC(=O)[C@H]1CC[C@H](C(=O)OC)CC1 | 102 |
| CC1(C)CCCCC1 | 98 |
| C[C@]12CC(=O)C[C@@]1(C)CC(=O)C2 | 106 |
| CC12CCC(CC1=O)C2(C)C (centres unmarked) | 102 |
| CC12CCC(CC1)C(C)(C)O2 | 99.5 |
| O=C(O)C1CC2C=CC1O2 (centres unmarked) | 106 |

Ask: Give the observed activity at 30 min, 12.5 µM of CCCCCC12CCC(C(=O)O)(CC1)CC2 for CYP3A.
Result: 109
